Biological target: UniProt:Q9H1C0
Sequence (Q9H1C0 whole entry): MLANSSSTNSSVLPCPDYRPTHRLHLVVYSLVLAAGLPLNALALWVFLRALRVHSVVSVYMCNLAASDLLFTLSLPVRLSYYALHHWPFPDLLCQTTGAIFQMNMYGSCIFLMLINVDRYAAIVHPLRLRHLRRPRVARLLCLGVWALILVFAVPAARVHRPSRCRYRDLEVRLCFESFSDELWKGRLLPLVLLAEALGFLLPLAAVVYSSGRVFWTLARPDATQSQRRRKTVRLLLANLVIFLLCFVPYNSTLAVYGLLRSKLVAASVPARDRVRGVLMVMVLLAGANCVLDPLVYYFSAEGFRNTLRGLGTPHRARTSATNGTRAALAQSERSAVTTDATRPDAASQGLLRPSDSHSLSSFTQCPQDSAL
Experiment: LPA-elicited Ca2+ transients in RH7777 cells transiently transfected with LPA5
Format: cell-based
Conditions: read-out: LPA5 transiently transfected RH7777 cells EC50; Table IV; mean ± SD
Listed below: EC50 values for each entry.

| MOLECULE | EXPERIMENTAL_TARGET | EC50 (nM) |
| --- | --- | --- |
| CCCCCCCCCCCCCCCCOC[C@@H](O)COP(=O)(O)O [alkyl-LPA 16:0] | UniProt:Q9H1C0 | 4.1 |
| CCCCCCCCCCCCCCCCCCOC[C@@H](O)COP(=O)(O)O [alkyl-LPA 18:0] | UniProt:Q9H1C0 | 69.9 |

---

Molecular target: LPA1 (Homo sapiens, UniProt Q92633)
Sequence (Q92633 whole entry): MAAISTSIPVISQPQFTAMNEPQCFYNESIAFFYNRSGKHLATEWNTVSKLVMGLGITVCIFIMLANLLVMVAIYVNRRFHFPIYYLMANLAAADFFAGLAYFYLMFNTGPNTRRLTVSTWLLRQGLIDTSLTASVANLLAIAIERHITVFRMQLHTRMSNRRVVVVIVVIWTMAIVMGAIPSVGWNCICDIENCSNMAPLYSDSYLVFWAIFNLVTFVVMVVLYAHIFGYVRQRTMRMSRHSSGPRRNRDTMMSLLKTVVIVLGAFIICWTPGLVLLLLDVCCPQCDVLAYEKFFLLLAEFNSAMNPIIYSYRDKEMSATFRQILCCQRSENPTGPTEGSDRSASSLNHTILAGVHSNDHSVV
Experiment: LPA-elicited Ca2+ transients in RH7777 cells stably expressing LPA1
Assay type: cell-based
Conditions: Table II; LPA1; inhibitory binding constant
pKi: −log10 of the molar value.

| COMPOUND_STRUCTURE_STRING | pKi |
| --- | --- |
| CCCCCCCCCCCCCCCC(=O)N[C@@H](Cc1ccc(OP(=O)(O)O)cc1)C(=O)O | 6.28 |

---

Target: UniProt:Q9HBW0
Sequence (Q9HBW0 whole entry): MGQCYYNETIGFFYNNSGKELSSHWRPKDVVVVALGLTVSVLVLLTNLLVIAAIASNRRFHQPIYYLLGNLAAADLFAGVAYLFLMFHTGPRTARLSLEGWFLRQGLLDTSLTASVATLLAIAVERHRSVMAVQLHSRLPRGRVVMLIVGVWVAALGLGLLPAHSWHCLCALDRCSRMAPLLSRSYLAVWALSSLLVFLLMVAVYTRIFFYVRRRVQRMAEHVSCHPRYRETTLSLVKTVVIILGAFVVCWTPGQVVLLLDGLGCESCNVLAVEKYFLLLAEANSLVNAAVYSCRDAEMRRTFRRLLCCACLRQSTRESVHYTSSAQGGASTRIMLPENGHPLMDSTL
Assay: LPA-elicited Ca2+ transients in RH7777 cells stably expressing LPA2
Details: Table II; LPA2
pEC50: −log10 of the molar value.

| COMPOUND | pEC50 |
| --- | --- |
| CCCCCCCCCCCCCCCC(=O)N[C@@H](COP(=O)(O)O)C(=O)O [NPSPA, N-palmitoyl-serine phosphoric acid] | 4.92 |

---

Target: UniProtKB Q9UBY5
Sequence (Q9UBY5 whole entry): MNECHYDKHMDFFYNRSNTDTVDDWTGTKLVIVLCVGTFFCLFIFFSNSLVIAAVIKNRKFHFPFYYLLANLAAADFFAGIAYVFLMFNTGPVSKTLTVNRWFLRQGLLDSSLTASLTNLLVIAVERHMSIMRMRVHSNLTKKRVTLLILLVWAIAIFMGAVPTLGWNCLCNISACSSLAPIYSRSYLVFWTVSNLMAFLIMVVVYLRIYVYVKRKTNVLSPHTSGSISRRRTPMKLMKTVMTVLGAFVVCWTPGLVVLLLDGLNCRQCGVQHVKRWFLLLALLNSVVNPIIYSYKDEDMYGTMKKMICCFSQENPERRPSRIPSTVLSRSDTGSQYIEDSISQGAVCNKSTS
Assay: LPA-elicited Ca2+ transients in RH7777 cells stably expressing LPA3
Settings: Table II; LPA3

| MOLECULE | EC50 |
| --- | --- |
| CCCCCCCCCCCCCCCC(=O)N[C@@H](COP(=O)(O)O)C(=O)O [NPSPA, N-palmitoyl-serine phosphoric acid] | 730 nM |
